assay-explanation: Plasma concentration in paediatric patients with congestive heart failure
Format: ADME
assay-context: human

{"compound": "COc1ccccc1OCCNCC(O)COc1cccc2[nH]c3ccccc3c12 (stereo unspecified) [CARVEDILOL]", "concentration [nM]": 500}

====

assay-explanation: Plasma concentration in human at 400 mg, po
Type: ADME, cell-free

{"compound": "Cc1c(C)c2c(c(C)c1O)CCC(C)(COc1ccc(CC3SC(=O)NC3=O)cc1)O2 (stereo unspecified) [TROGLITAZONE]", "concentration": "5 to 20 µM"}

====

target-under-test: Polyunsaturated fatty acid lipoxygenase ALOX15 (Mus musculus, UniProt P39654)
Sequence (P39654 whole entry): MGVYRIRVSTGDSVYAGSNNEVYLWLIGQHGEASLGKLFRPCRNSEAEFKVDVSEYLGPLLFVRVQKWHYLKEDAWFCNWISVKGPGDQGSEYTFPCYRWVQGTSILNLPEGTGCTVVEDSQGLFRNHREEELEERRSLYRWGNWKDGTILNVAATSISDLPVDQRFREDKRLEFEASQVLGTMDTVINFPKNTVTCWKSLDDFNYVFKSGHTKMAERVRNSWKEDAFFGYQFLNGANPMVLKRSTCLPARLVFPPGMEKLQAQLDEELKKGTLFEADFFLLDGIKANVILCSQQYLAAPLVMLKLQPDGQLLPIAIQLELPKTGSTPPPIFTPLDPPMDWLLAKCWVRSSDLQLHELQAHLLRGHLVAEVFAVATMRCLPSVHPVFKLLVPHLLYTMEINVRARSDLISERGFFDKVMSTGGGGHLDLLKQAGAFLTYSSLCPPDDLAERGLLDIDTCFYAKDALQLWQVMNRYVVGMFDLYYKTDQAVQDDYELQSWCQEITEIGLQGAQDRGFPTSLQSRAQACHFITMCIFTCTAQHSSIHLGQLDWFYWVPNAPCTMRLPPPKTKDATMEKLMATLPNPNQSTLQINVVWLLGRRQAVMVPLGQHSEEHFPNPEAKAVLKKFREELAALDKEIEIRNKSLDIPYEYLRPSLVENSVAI
assay-explanation: Inhibition of 15-LOX-mediated lipid oxidation in 10% C57BL/6J mouse plasma
pIC50: −log10 of the molar value.
Each entry below lists one item and its recorded pIC50 value.

{"molecule": "Cc1c(C)c2c(c(C)c1O)CCC(C)(COc1ccc(CC3SC(=O)NC3=O)cc1)O2 (configuration not stated)", "pIC50": 4.70}
{"molecule": "CC1=NN(c2ccccc2)C(=O)C1", "pIC50": 4.47}
